# key: entry, value: pIC50
- Tested on: Hs578T
- measurementNotes: Matrigel outgrowth assay/branching assay
- Type: cell-based
- studyConditions: Homo sapiens, Hs-578T; HS578T cell line; Table Ib; read-out: Total branching inhibition in Matrigel HS578T
pIC50: −log10 of the molar value.
reportedProperty: pIC50

[
  {
    "molecule": "COc1cc2c(Oc3ccc(NS(=O)(=O)c4ccco4)cc3F)ccnc2cc1OCCCN(C)C",
    "reportedProperty": "pIC50",
    "testResult": "4.60 to 5.00"
  },
  {
    "molecule": "COc1cc2c(Oc3ccc(NS(=O)(=O)c4ccccc4Cl)cc3F)ccnc2cc1OCCCN1CCN(C)CC1",
    "reportedProperty": "pIC50",
    "testResult": "≥ 5.00"
  },
  {
    "molecule": "COc1cc2c(Oc3ccc(NS(=O)(=O)c4cc(F)ccc4F)cc3Cl)ccnc2cc1OCCCN1CCN(C)CC1",
    "reportedProperty": "pIC50",
    "testResult": "≥ 5.00"
  },
  {
    "molecule": "COc1cc2c(Oc3ccc(NS(=O)(=O)c4c(F)cccc4F)cc3C)ccnc2cc1OCCCN1CCC(C)CC1",
    "reportedProperty": "pIC50",
    "testResult": "≥ 5.00"
  },
  {
    "molecule": "COc1cc2c(Oc3ccc(NS(=O)(=O)c4csc5ccccc45)cc3F)ccnc2cc1OCCCN1CCC(C)CC1",
    "reportedProperty": "pIC50",
    "testResult": "≥ 5.00"
  },
  {
    "molecule": "COc1cc2c(Oc3ccc(NS(=O)(=O)c4ccccc4C(F)(F)F)cc3F)ccnc2cc1OCCCNC(=O)OC(C)(C)C",
    "reportedProperty": "pIC50",
    "testResult": "4.60 to 5.00"
  },
  {
    "molecule": "COc1cc2c(Oc3ccc(NS(=O)(=O)c4ccccc4OC(F)(F)F)cc3F)ccnc2cc1OCCCN1CCCC(C)C1 (stereo not drawn)",
    "reportedProperty": "pIC50",
    "testResult": "≥ 5.00"
  },
  {
    "molecule": "COc1cc2c(Oc3ccc(NS(=O)(=O)c4ccccc4F)cc3F)ccnc2cc1OCCCN1CCN(C)CC1",
    "reportedProperty": "pIC50",
    "testResult": "≥ 5.00"
  },
  {
    "molecule": "COc1cc2c(Oc3cccc(NS(=O)(=O)c4ccsc4)c3)ccnc2cc1OCCCN1CCN(C)CC1",
    "reportedProperty": "pIC50",
    "testResult": "≥ 5.00"
  },
  {
    "molecule": "COc1cc2c(Oc3cccc(NS(=O)(=O)C4CC4)c3)ccnc2cc1OCCCN1CCN(C)CC1",
    "reportedProperty": "pIC50",
    "testResult": "4.60 to 5.00"
  },
  {
    "molecule": "COc1cc2c(Oc3ccc(NS(=O)(=O)c4c(Cl)cccc4Cl)cc3F)ccnc2cc1OCCCN(C)C",
    "reportedProperty": "pIC50",
    "testResult": "≥ 5.00"
  },
  {
    "molecule": "COc1cc2c(Oc3ccc(NS(=O)(=O)c4cnc(C)[nH]4)cc3F)ccnc2cc1OCCCN1CCCCC1",
    "reportedProperty": "pIC50",
    "testResult": "4.60 to 5.00"
  }
]
